Can you tell me IC50 for the items I'm about to list?
- assay details: Inhibition of amyloid beta (1-42) aggregation by thioflavin T competition binding experiment
Return type: number; implicit unit nM.

Which IC50 value belongs to "CN(C)c1ccc2nc(C=C(C#N)C#N)sc2c1" ?
120

Which IC50 value belongs to [11CH3]Nc1ccc(-c2nc3ccc(O)cc3s2)cc1 [PITTSBURGH COMPOUND B] ?
670

Which IC50 value belongs to "CN(C)c1ccc2nc(/C=C/c3ccc(C=C(C#N)C#N)cc3)sc2c1" ?
110
